Tested on: 958667-338-R-J2-PDC tumor spheroids viability
TEST DESCRIPTION: Anticancer human tumor 958667-338-R-J2-PDC patient-derived colon adenocarcinoma cell line growth inhibition [PI3K]
ASSAY CONDITIONS: second compound 0.316 µM; first compound 10 µM; stronger effect = lower value; spheroids with HUVEC and MSC
Exam item: assign true (1) to entries whose viability, T/C is below 20% and false (0) to entries at or above 20%. Note that a value of exactly 20% receives false (0).

I'd appreciate it if you could check whether C#Cc1c(F)ccc2cc(O)cc(-c3ncc4c(N5CC6CCC(C5)N6)nc(OCC56CCCN5CC(F)C6)nc4c3F)c12 (stereo not given) + CC(Nc1ccc2c(c1)OCCn1cc(N3C(=O)OCC3C(F)F)nc1-2)C(N)=O has viability, T/C smaller than 20%.
false (0)

I'd appreciate it if you could check whether CNC(=O)c1ccc(N2C(=S)N(c3ccc(C#N)c(C(F)(F)F)c3)C(=O)C2(C)C)cc1F + CC(Nc1ccc2c(c1)OCCn1cc(N3C(=O)OCC3C(F)F)nc1-2)C(N)=O has viability, T/C smaller than 20%.
false (0)

I'd appreciate it if you could check whether CC1(C)CCC(CN2CCN(c3ccc(C(=O)NS(=O)(=O)c4ccc(NCC5CCOCC5)c([N+](=O)[O-])c4)c(Oc4cnc5[nH]ccc5c4)c3)CC2)=C(c2ccc(Cl)cc2)C1 + CC(Nc1ccc2c(c1)OCCn1cc(N3C(=O)OCC3C(F)F)nc1-2)C(N)=O has viability, T/C smaller than 20%.
true (1)

I'd appreciate it if you could check whether Cn1ncc(Cl)c1-c1cc(C(=O)NC(CN)Cc2cccc(F)c2)sc1Cl (stereo not given) + COc1c(OCCCN2CCOCC2)ccc2c3n(c(=NC(=O)c4cnc(N)nc4)nc12)CCN3 has viability, T/C smaller than 20%.
true (1)

I'd appreciate it if you could check whether C#Cc1c(F)ccc2cc(O)cc(-c3ncc4c(N5CC6CCC(C5)N6)nc(OCC56CCCN5CC(F)C6)nc4c3F)c12 (stereo not given) + Cc1nc(NC(=O)N2CCCC2C(N)=O)sc1-c1ccnc(C(C)(C)C(F)(F)F)c1 has viability, T/C smaller than 20%.
false (0)

----------
Would you kindly list viability, T/C for each of these compounds?
Tested on: 958667-338-R-J2-PDC tumor spheroids viability
TEST DESCRIPTION: Anticancer human tumor 958667-338-R-J2-PDC cell line growth inhibition [PI3K];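 note: spheroids exposed to compounds for seven days before readout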
ASSAY CONDITIONS: second compound 1 µM; first compound 0.0316 µM; stronger effect = lower value; spheroids with HUVEC and MSC
Provide only the numeric value, understood in %.

Form field - read-out: viability, T/C; system: 958667-338-R-J2-PDC tumor spheroids viability; submitted item: C#Cc1c(F)ccc2cc(O)cc(-c3ncc4c(N5CC6CCC(C5)N6)nc(OCC56CCCN5CC(F)C6)nc4c3F)c12 (stereo not given) + Cc1nc(NC(=O)N2CCCC2C(N)=O)sc1-c1ccnc(C(C)(C)C(F)(F)F)c1
82.8

Form field - read-out: viability, T/C; system: 958667-338-R-J2-PDC tumor spheroids viability; submitted item: C[C@@H](NC(=O)c1ncnc(N)c1Cl)c1ncc(C(=O)Nc2cc(C(F)(F)F)c(Cl)cn2)s1 + Cc1nc(NC(=O)N2CCCC2C(N)=O)sc1-c1ccnc(C(C)(C)C(F)(F)F)c1
87

Form field - read-out: viability, T/C; system: 958667-338-R-J2-PDC tumor spheroids viability; submitted item: CC(Cn1ccc(-c2ccc(C#N)c(Cl)c2)n1)NC(=O)c1cc(C(C)O)[nH]n1 (stereo not given) + COc1c(OCCCN2CCOCC2)ccc2c3n(c(=NC(=O)c4cnc(N)nc4)nc12)CCN3
19.5

Form field - read-out: viability, T/C; system: 958667-338-R-J2-PDC tumor spheroids viability; submitted item: C#Cc1c(F)ccc2cc(O)cc(-c3ncc4c(N5CC6CCC(C5)N6)nc(OCC56CCCN5CC(F)C6)nc4c3F)c12 (stereo not given) + CC(Nc1ccc2c(c1)OCCn1cc(N3C(=O)OCC3C(F)F)nc1-2)C(N)=O
61

Form field - read-out: viability, T/C; system: 958667-338-R-J2-PDC tumor spheroids viability; submitted item: CC(Cn1ccc(-c2ccc(C#N)c(Cl)c2)n1)NC(=O)c1cc(C(C)O)[nH]n1 (stereo not given) + CC(Nc1ccc2c(c1)OCCn1cc(N3C(=O)OCC3C(F)F)nc1-2)C(N)=O
64.2

----------
Test system: 958667-338-R-J2-PDC tumor spheroids viability
TEST DESCRIPTION: Anticancer human tumor 958667-338-R-J2-PDC cell line growth inhibition [PI3K];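 note: spheroids exposed to compounds for seven days before readout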
ASSAY CONDITIONS: second compound 0.0316 µM; first compound 0.316 µM; stronger effect = lower value; spheroids with HUVEC and MSC
Exam item: assign Condition met to entries whose viability, T/C is below 80% and Condition not met to entries at or above 80%. Note that a value of exactly 80% receives Condition not met.

I'd appreciate it if you could check whether CC1(C)CCC(CN2CCN(c3ccc(C(=O)NS(=O)(=O)c4ccc(NCC5CCOCC5)c([N+](=O)[O-])c4)c(Oc4cnc5[nH]ccc5c4)c3)CC2)=C(c2ccc(Cl)cc2)C1 + CC(Nc1ncnc2nc[nH]c12)c1cc2cccc(Cl)c2c(=O)n1-c1ccccc1 has viability, T/C smaller than 80%.
Condition not met

I'd appreciate it if you could check whether Cn1ncc(Cl)c1-c1cc(C(=O)NC(CN)Cc2cccc(F)c2)sc1Cl (stereo not given) + COc1c(OCCCN2CCOCC2)ccc2c3n(c(=NC(=O)c4cnc(N)nc4)nc12)CCN3 has viability, T/C smaller than 80%.
Condition met

I'd appreciate it if you could check whether CNC(=O)c1ccc(N2C(=S)N(c3ccc(C#N)c(C(F)(F)F)c3)C(=O)C2(C)C)cc1F + Cc1nc(NC(=O)N2CCCC2C(N)=O)sc1-c1ccnc(C(C)(C)C(F)(F)F)c1 has viability, T/C smaller than 80%.
Condition not met

I'd appreciate it if you could check whether CCN1CCN(Cc2ccc(Nc3ncc(F)c(-c4cc(F)c5nc(C)n(C(C)C)c5c4)n3)nc2)CC1 + Cc1nc(NC(=O)N2CCCC2C(N)=O)sc1-c1ccnc(C(C)(C)C(F)(F)F)c1 has viability, T/C smaller than 80%.
Condition met

----------
Tested on: 958667-338-R-J2-PDC tumor spheroids viability
TEST DESCRIPTION: Anticancer human tumor 958667-338-R-J2-PDC cell line growth inhibition [PI3K];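 note: spheroids exposed to compounds for seven days before readout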
ASSAY CONDITIONS: second compound 0.316 µM; first compound 10 µM; stronger effect = lower value; spheroids with HUVEC and MSC
Exam item: assign condition met to entries whose viability, T/C is below 30% and condition not met to entries at or above 30%. Note that a value of exactly 30% receives condition not met.

I'd appreciate it if you could check whether Cn1ncc(Cl)c1-c1cc(C(=O)NC(CN)Cc2cccc(F)c2)sc1Cl (stereo not given) + Cc1nc(NC(=O)N2CCCC2C(N)=O)sc1-c1ccnc(C(C)(C)C(F)(F)F)c1 has viability, T/C smaller than 30%.
condition met

I'd appreciate it if you could check whether C=CC(=O)N1CCN(c2nc(=O)n(-c3c(C)ccnc3C(C)C)c3nc(-c4c(O)cccc4F)c(F)cc23)C(C)C1 (stereo not given) + CC(Nc1ncnc2nc[nH]c12)c1cc2cccc(Cl)c2c(=O)n1-c1ccccc1 has viability, T/C smaller than 30%.
condition not met

I'd appreciate it if you could check whether CCCS(=O)(=O)Nc1ccc(F)c(C(=O)c2c[nH]c3ncc(-c4ccc(Cl)cc4)cc23)c1F + COc1c(OCCCN2CCOCC2)ccc2c3n(c(=NC(=O)c4cnc(N)nc4)nc12)CCN3 has viability, T/C smaller than 30%.
condition met

I'd appreciate it if you could check whether CC1(C)CCC(Nc2ncc(C(F)(F)F)c(-c3c[nH]c4c(P(C)(C)=O)c(C#N)ccc34)n2)CN1 (stereo not given) + COc1c(OCCCN2CCOCC2)ccc2c3n(c(=NC(=O)c4cnc(N)nc4)nc12)CCN3 has viability, T/C smaller than 30%.
condition met

I'd appreciate it if you could check whether CC(C)NCC(C(=O)N1CCN(c2ncnc3c2C(C)CC3O)CC1)c1ccc(Cl)cc1 (stereo not given) + Cc1nc(NC(=O)N2CCCC2C(N)=O)sc1-c1ccnc(C(C)(C)C(F)(F)F)c1 has viability, T/C smaller than 30%.
condition not met

----------
System: 958667-338-R-J2-PDC tumor spheroids viability
TEST DESCRIPTION: Anticancer human tumor 958667-338-R-J2-PDC cell line growth inhibition [PI3K];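 note: spheroids exposed to compounds for seven days before readout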
ASSAY CONDITIONS: second compound 0.01 µM; first compound 0.316 µM; stronger effect = lower value; spheroids with HUVEC and MSC
MEASURED PARAMETER: viability, T/C (%)
Provide only the numeric value, understood in %.

Request the reported viability, T/C associated with CCN1CCN(Cc2ccc(Nc3ncc(F)c(-c4cc(F)c5nc(C)n(C(C)C)c5c4)n3)nc2)CC1 + COc1c(OCCCN2CCOCC2)ccc2c3n(c(=NC(=O)c4cnc(N)nc4)nc12)CCN3
57.4

Request the reported viability, T/C associated with C[C@@H](NC(=O)c1ncnc(N)c1Cl)c1ncc(C(=O)Nc2cc(C(F)(F)F)c(Cl)cn2)s1 + COc1c(OCCCN2CCOCC2)ccc2c3n(c(=NC(=O)c4cnc(N)nc4)nc12)CCN3
111

Request the reported viability, T/C associated with CCCS(=O)(=O)Nc1ccc(F)c(C(=O)c2c[nH]c3ncc(-c4ccc(Cl)cc4)cc23)c1F + CC(Nc1ccc2c(c1)OCCn1cc(N3C(=O)OCC3C(F)F)nc1-2)C(N)=O
83.7

Request the reported viability, T/C associated with Cn1nccc1Nc1nccc(-c2ccn(C(CO)c3ccc(Cl)c(F)c3)c(=O)c2)n1 (configuration not stated) + CC(Nc1ccc2c(c1)OCCn1cc(N3C(=O)OCC3C(F)F)nc1-2)C(N)=O
105

Request the reported viability, T/C associated with C#Cc1c(F)ccc2cc(O)cc(-c3ncc4c(N5CC6CCC(C5)N6)nc(OCC56CCCN5CC(F)C6)nc4c3F)c12 (configuration not stated) + COc1c(OCCCN2CCOCC2)ccc2c3n(c(=NC(=O)c4cnc(N)nc4)nc12)CCN3
109

Request the reported viability, T/C associated with CC1(C)CCC(Nc2ncc(C(F)(F)F)c(-c3c[nH]c4c(P(C)(C)=O)c(C#N)ccc34)n2)CN1 (configuration not stated) + COc1c(OCCCN2CCOCC2)ccc2c3n(c(=NC(=O)c4cnc(N)nc4)nc12)CCN3
68.2

Request the reported viability, T/C associated with C=CC(=O)N1CCN(c2nc(=O)n(-c3c(C)ccnc3C(C)C)c3nc(-c4c(O)cccc4F)c(F)cc23)C(C)C1 (configuration not stated) + COc1c(OCCCN2CCOCC2)ccc2c3n(c(=NC(=O)c4cnc(N)nc4)nc12)CCN3
87

Request the reported viability, T/C associated with CC(Cn1ccc(-c2ccc(C#N)c(Cl)c2)n1)NC(=O)c1cc(C(C)O)[nH]n1 (configuration not stated) + CC(Nc1ccc2c(c1)OCCn1cc(N3C(=O)OCC3C(F)F)nc1-2)C(N)=O
77.4

Request the reported viability, T/C associated with CC(Cn1ccc(-c2ccc(C#N)c(Cl)c2)n1)NC(=O)c1cc(C(C)O)[nH]n1 (configuration not stated) + COc1c(OCCCN2CCOCC2)ccc2c3n(c(=NC(=O)c4cnc(N)nc4)nc12)CCN3
85.2

Request the reported viability, T/C associated with C#Cc1c(F)ccc2cc(O)cc(-c3ncc4c(N5CC6CCC(C5)N6)nc(OCC56CCCN5CC(F)C6)nc4c3F)c12 (configuration not stated) + CC(Nc1ccc2c(c1)OCCn1cc(N3C(=O)OCC3C(F)F)nc1-2)C(N)=O
121

Request the reported viability, T/C associated with Cn1ncc(Cl)c1-c1cc(C(=O)NC(CN)Cc2cccc(F)c2)sc1Cl (configuration not stated) + CC(Nc1ccc2c(c1)OCCn1cc(N3C(=O)OCC3C(F)F)nc1-2)C(N)=O
104

Request the reported viability, T/C associated with Cn1ncc(Cl)c1-c1cc(C(=O)NC(CN)Cc2cccc(F)c2)sc1Cl (configuration not stated) + COc1c(OCCCN2CCOCC2)ccc2c3n(c(=NC(=O)c4cnc(N)nc4)nc12)CCN3
87.8
